Reference for the values: ChEMBL document CHEMBL2203022

System: Pseudomonas aeruginosa
Assay procedure: Antibacterial activity against Pseudomonas aeruginosa MTCC 2453 at 10 ug per disk after 24 hrs by disc diffusion method
Type: functional
Settings: MTCC 2453, 24 h, read-out: DIZ
Param threshold (8 mm) applies to zone of inhibition at 10 µg/disc; output Condition met when value >= threshold, Condition not met when value < threshold.

Take a look at these entries with their results.
CCCCc1nc(Cl)c(-c2cc(-c3ccc(Br)s3)nc3c2C(=O)c2ccccc2-3)n1Cc1ccccc1: Condition met
CCCCc1nc(Cl)c(-c2cc(-c3cc(OC)c(OC)c(OC)c3)nc3c2C(=O)c2ccccc2-3)n1Cc1ccccc1: Condition not met
CCCCc1nc(Cl)c(-c2cc(-c3ccco3)nc3c2C(=O)c2ccccc2-3)n1Cc1ccccc1: Condition met
CCCCc1nc(Cl)c(-c2cc(-c3ccc4oc5ccccc5c4c3)nc3c2C(=O)c2ccccc2-3)n1Cc1ccccc1: Condition met
CCCCc1nc(Cl)c(-c2cc(-c3ccc(OC)cc3)nc3c2C(=O)c2ccccc2-3)n1Cc1ccccc1: Condition met

Exam item: Hello, I need to know if `CCCCc1nc(Cl)c(-c2cc(-c3cn(S(=O)(=O)c4ccc(C)cc4)c4ccccc34)nc3c2C(=O)c2ccccc2-3)n1Cc1ccccc1` has measured zone of inhibition at 10 µg/disc not below 8 mm. Thanks!
Marked response: Condition not met
